Molecular target: T1, human serum albumin (human, UniProt P02768 25-609)
T1 construct: Negative control of the ELISA; also called HSA
T1 sequence (P02768 25-609 limits assumed): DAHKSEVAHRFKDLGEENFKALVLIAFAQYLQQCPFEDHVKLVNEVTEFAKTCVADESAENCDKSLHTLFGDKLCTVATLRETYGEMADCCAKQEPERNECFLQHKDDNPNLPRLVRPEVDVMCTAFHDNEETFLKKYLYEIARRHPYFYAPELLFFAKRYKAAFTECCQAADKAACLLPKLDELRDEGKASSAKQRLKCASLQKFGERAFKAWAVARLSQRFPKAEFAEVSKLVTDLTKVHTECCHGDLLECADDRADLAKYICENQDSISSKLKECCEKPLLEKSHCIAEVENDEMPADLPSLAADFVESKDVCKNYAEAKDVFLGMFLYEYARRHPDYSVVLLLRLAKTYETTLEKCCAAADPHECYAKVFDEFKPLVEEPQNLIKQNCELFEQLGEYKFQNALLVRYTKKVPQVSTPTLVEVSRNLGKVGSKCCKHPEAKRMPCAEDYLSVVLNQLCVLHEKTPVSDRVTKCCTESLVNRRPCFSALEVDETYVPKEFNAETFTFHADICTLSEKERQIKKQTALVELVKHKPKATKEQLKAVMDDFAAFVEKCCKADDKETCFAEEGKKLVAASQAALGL
Experiment: ELISA, negative control HSA
# note: boundary value 600 RLU maps to False; ELISA HSA (RLU) below it maps to True

# check: ELISA HSA (RLU) < 600 RLU for ISOP193HR9P1H10 (designed binder, not shown: small tags and cut ends) LPAPKNLVVSRVTEDSARLSWTAPDAAFDSFDIYYYELRLGGEAIVLTVPGSERSYDLTGLKPGTEYLVTIYGVKVCLGSNPLSAIFTT
False

# check: ELISA HSA (RLU) < 600 RLU for ISOP193ER9P1C9 (designed binder, not shown: small tags and cut ends) LPAPKNLVVSRVTEDSARLSWTAPDAAFDSFDIYYFEHPVGGEAIVLTVPGSERSYDLTGLKPGTEYLVTIYGVKGGELSKPLSAISTT
True

# check: ELISA HSA (RLU) < 600 RLU for ISOP193GR9P1B3 (designed binder, not shown: small tags and cut ends) LPAPKNLVVSRVTEDSARLSWTAPDAAFDSFAIGYVEWTANGEAIVLIVPGSERSYDLTGLKPGTEYVVRIRGGVKGGDSSFPLRADFTT
True

# check: ELISA HSA (RLU) < 600 RLU for ISOP193ER9P1A10 (designed binder, not shown: small tags and cut ends) LPAPKNLVVSRVTEDSARLSWTAPDAAFDSFDIYYFEHPVGGEAIVLTVPGSERSYDLTGLKPGTEYLVTIYGVKGGHFSGPLSAIFTT
True

# check: ELISA HSA (RLU) < 600 RLU for ISOP193GR9P1F6 (designed binder, not shown: small tags and cut ends) LPAPKNLVVSRVTEDSARLSWTAPDAAFDSFEIDYWEVESEGEAIVLFVPGSERSYDLTGLKPGTEYHVHIVGVKGGTPSYPLWADFTT
True
